Field: Activity of soybean GST enzyme, Alachlor. Provide a value for each of the molecules that follow.
- testDetails: GST conjugation activity with alachlor (HPLC)
- Format: biochemical
- conditionDescription: 0.4 mM electrophilic substrate, 4 mM glutathione, 0.1 M MOPS pH 7.0, corrected for uncatalyzed reaction

Q: What value of measured Activity of soybean GST enzyme, Alachlor is listed for ssm.pk0026.g11: soybean type II GST encoded by cDNA insert in clone ssm.pk0026.g11 (protein) MASASVGKELTLYSYWRSSCSHRVRIALNLKGLKYEYKPVNLLKGEQSRPEFLQLNPVGCVPVLVDDHVVLYDSFAIIMYLEDKYPHNPLLPHDIYKRAINFQAASVVSSTIQPLHNLSLLNYIGEKVGPDEKLPWAQSIIRRGFKALEKLLKDHTGRYATGDEVFLADIFLAPQLHAAFKRFNIHMNEFPILARLHETYNEIPAFQEALPENQPDAVH ?
Result: 0 nmol/min/mg

Q: # input molecule: ssm.pk0067.g5: soybean type III GST encoded by cDNA insert in clone ssm.pk0067.g5 (protein) MASYHEEEVRLLGKWASPFSNRVDLALKLKGVPYKYSEEDLANKSADLLKYNPVHKKVPVLVHNGNPLPESLIIVEYIDETWKNNPLLPQDPYERALARFWSKTLDDKILPAIWNACWSDENGREKAVEEALEALKILQETLKDKKFFGGESIGLVDIAANFIGYWVAILQEIAGLELLTIEKFPKLYNWSQDFINHPVIKEGLPPRDELFAFFKASAKK ; wanted: its Activity of soybean GST enzyme, Alachlor
Result: 4 nmol/min/mg

Q: Give the measured Activity of soybean GST enzyme, Alachlor of se6.pk0048.d7: soybean type III GST encoded by cDNA insert in clone se6.pk0048.d7 (protein) MADEVVLLDFWPSPFGMRVRIALAEKGIKYESKEEDLQNKSPLLLKMNPVHKKIPVLIHNGKPICESLVAVQYIEEVWNDRNPLLPSDPYQRAQARFWADFVDNKIFDLGRKIWTSKGEEKEAAKKEFIEALKLLEEQLGDKTYFGGDDLGFVDIALIPFDTWFKTFGSLNIESECPKFVAWAKRCLQKDSVAKSLPDQHKVYEFIMDIRKKFDIE .
Result: 8 nmol/min/mg

Q: Bench note: what Activity of soybean GST enzyme, Alachlor did se6.pk0037.h4: soybean type III GST encoded by cDNA insert in clone se6.pk0037.h4, expressed in E. coli (protein) MAATQEDVTLLGVVGSPFVCRVQIALKLKGIECKFLEENLANKSDLLLKSNPVYKKVPVFIHNEKPIAESLVIVEYIDETWKNNPILPSDPYQRSFARFWSKFIDDKIVGASWKSVFTVDEKEREKNVEESLEALQFLENELQDKRFFGGDEFGFVDIAGVFIAFSIPIFQEVAGLQLFTSEKFPKLFKWSQELINHPVVKDVLPPREPLFAFFKSLYESLSASK show?
Result: 1 nmol/min/mg

Reference source: patent US6168954A
